Molecular target: PD brain-derived alpha-synuclein aggregates (Homo sapiens)
Construct: from tissue; host or cells: human PD donor brain tissue, sarkosyl-insoluble fraction
Assay: Micro-radiobinding competition assay for the determination of binding affinity
Settings: 100 nM non-radiolabelled example compound, competition over tritiated reference alpha-synuclein ligand (6 nM, 20 nM or 30 nM)
Method: The procedure was adapted from the protocol described in Spillantini et al., 1998. Frozen tissue blocks from PD donors were thawed on ice and homogenized using a glass dounce homogenizer. […] PD brain-derived alpha-synuclein aggregates were spotted onto microarray slides. […] In some cases, the non-radiolabelled example compounds were further assessed for a range of different concentrations, varying from 0.05 nM to 2 μM. […]
Observed Property: inhibition at 0.1 µM (%)
Number in %, nothing else.

Report inhibition at 0.1 µM for `Cn1cc(N2Cc3cn(-c4ccc(N5CC[C@@H](F)C5)nc4)nc3C2=O)cn1` please.
74

---

Biological target: PD brain-derived alpha-synuclein aggregates (Homo sapiens, UniProt P37840)
Test: Micro-radiobinding competition assay for the determination of binding affinity
Conditions: compound concentrations 0.05 nM to 2 μM, nonlinear regression, one site model
Labelling field: enter YES if recorded Ki is less than 90 nM. Enter NO if it equals or exceeds that cut-off.

Consider the worked cases shown below.
Compound | Category
Cn1cc(N2Cc3cn(-c4ccc(N5CC(F)C5)nc4)nc3C2=O)cn1 [Example 3] | YES
Cc1ccc(N2Cc3cn(-c4ccc(N5CC[C@@H](F)C5)nc4)nc3C2=O)cn1 [Example 8] | NO
O=C1c2nn(-c3ccc(OCCF)nc3)cc2CN1c1cncs1 [Example 19] | YES
Cn1cc(N2Cc3cn(-c4ccc(OCCF)nc4)nc3C2=O)cn1 [Example 18] | YES

Let us examine a further case.
Hello, is Ki of the following compound strictly smaller than 90 nM? O=C1c2nn(-c3ccc(N4CC[C@@H](F)C4)nc3)nc2CN1c1cccnc1 [Example 10]
YES

---

Consider the following compounds and their measured pKi readings.
Molecular target: PD brain-derived alpha-synuclein aggregates (Homo sapiens)
Assay: Micro-radiobinding competition assay for the determination of binding affinity
Details: compound concentrations 0.05 nM to 2 μM, nonlinear regression, one site model
Note on units: pKi is unitless, being -log10 of a concentration expressed in mol/L.

Sample answers from the record:
Compound | Data Value
O=C1c2nn(-c3ccc(N4CC[C@H](F)C4)nc3)cc2CN1c1cccnc1 [Example 2] | 6.94
O=C1c2nn(-c3ccc(OCCF)nc3)cc2CN1c1cccnc1 [Example 17] | 6.67
O=C1c2nn(-c3ccc(N4CC[C@@H](F)C4)nc3)cc2CN1c1cncs1 [Example 12] | 7.28
O=C1c2nn(-c3ccc(N4CC[C@@H](F)C4)nc3)cc2CN1c1cccnc1 [Example 1] | 7.08

Report pKi for Cc1ncc(N2Cc3cn(-c4ccc(N5CC[C@H](F)C5)nc4)nc3C2=O)s1 [Example 16] please.
7.40

---

Target: PD brain-derived alpha-synuclein aggregates (Homo sapiens)
Construct: from tissue; host or cells: human PD donor brain tissue, sarkosyl-insoluble fraction
Assay: Micro-radiobinding competition assay for the determination of binding affinity
Settings: 100 nM non-radiolabelled example compound, competition over tritiated reference alpha-synuclein ligand (6 nM, 20 nM or 30 nM)
Parameter threshold = 40%. Response is true when inhibition at 0.1 µM meets or exceeds it, else false.

Consider the worked cases shown below.
Molecule | Category
O=C1c2nn(-c3ccc(N4CC[C@H](F)C4)nc3)cc2CN1c1cccnc1 [Example 2] | false
COc1cncc(N2Cc3cn(-c4ccc(N5CC[C@@H](F)C5)nc4)nc3C2=O)c1 [Example 7] | false
Cc1ccc(N2Cc3cn(-c4ccc(N5CC[C@@H](F)C5)nc4)nc3C2=O)cn1 [Example 8] | false
O=C1c2nn(-c3ccc(N4CC[C@@H](F)C4)nc3)cc2CN1c1cccnc1 [Example 1] | true

Textbook exercise: given the entry O=C1c2nn(-c3ccc(OCCF)nc3)cc2CN1c1cncs1 [Example 19] , state whether its inhibition at 0.1 µM is greater than or equal to 40%.
true
